- Test system: KM12 colon
- measurement.notes: NCI tumour cell line growth inhibition, 48 h
measured.property: TGI

>  <compound>
Cc1cc(Cl)ccc1N=C1NC(=O)C(CC(=O)Nc2ccc(Cl)cc2Cl)S1 (centres undefined)

>  <TGI>
> 100 µM

$$$$
>  <compound>
O=c1[nH]nc(Cc2ccc(Cl)cc2)n1/N=C\c1ccc(/C=N/n2c(Cc3ccc(Cl)cc3)n[nH]c2=O)cc1

>  <TGI>
> 100 µM

$$$$
>  <compound>
ClC1=C(Cc2ccccc2)Cc2ccc3c(c21)CCC3

>  <TGI>
39.2 µM

$$$$
>  <compound>
O=C(OCC1OC(c2nn[nH]n2)C(OC(=O)c2ccccc2)C1OC(=O)c1ccccc1)c1ccccc1 (centres undefined)

>  <TGI>
> 100 µM

$$$$

The recorded TGI for O=[N+]([O-])c1nccn1COCCF is > 100 µM

For CC1CCC2C(C(=O)O[C@H]3C4CCO[C@@H](OC5OC(CO)C(O)C(O)C5O)C4[C@@]4(CO)O[C@@H]34)=CO[C@@H](OC3OC(CO)C(O)C(O)C3O)C12 (some centres undefined) the compound record lists TGI as > 10 µM

// TGI lookup, compound = CCOC(=O)NC(NC(C)CC)(C(F)(F)F)C(F)(F)F (centres undefined) , result: > 100 µM

TGI reported for this compound COc1ccc([N+](=O)[O-])c(S(=O)(=O)c2ccc(Cl)cc2)n1 : 27.8 µM

Form: compound = Cc1cccc(-c2cc(=S)c3cc(N4CCCC4)ccc3[nH]2)c1 ; TGI = > 100 µM

----------
- System: U251 CNS
- measurement.notes: NCI tumour cell line growth inhibition, 48 h
measured.property: TGI

Consider the reported TGI for these molecules:
>  <molecule>
CC1=C(C(=O)Nc2ccc(Cl)c(Cl)c2)C(c2ccco2)C(C(=O)Nc2ccc(Cl)c(Cl)c2)=C(C)N1

>  <result>
23.9 µM

$$$$
>  <molecule>
CCOC(=O)CCC(NC(=O)c1ccc(Nc2nc3ccccc3nc2-c2cccs2)cc1)C(=O)OCC (stereo unspecified)

>  <result>
> 100 µM

$$$$
>  <molecule>
COc1ccc2[nH]c3c(c2c1)COc1ccccc1C3=O

>  <result>
> 100 µM

$$$$
>  <molecule>
CC(C)NC(=O)OCc1c(COC(=O)NC(C)C)n(C)c2c1ccc1ccccc12

>  <result>
4.24 µM

$$$$
>  <molecule>
N.N.NCCCCN.O=C([O-])C1(C(=O)[O-])CCC1.O=C([O-])C1(C(=O)[O-])CCC1.[Pt+4].[Pt+4]

>  <result>
> 100 µM

$$$$

Now examine the next entry.
Form field TGI, entry O=c1oc2ccc3ccccc3c2cc1-c1nc2ccccc2o1 : 53.1 µM

----------
- Test system: LXFL 529 NSCLC
- measurement.notes: NCI tumour cell line growth inhibition, 48 h
measured.property: TGI

Consider the worked cases shown below.
>  <molecule>
CCN(CC)C(=O)COc1ccc(Br)cc1Br

>  <assayed.system>
LXFL 529 NSCLC

>  <TGI>
> 100 µM

$$$$
>  <molecule>
Nc1ccn(C2CC(CO)C(O)C2O)c(=O)n1 (configuration not stated)

>  <assayed.system>
LXFL 529 NSCLC

>  <TGI>
> 57.7 µM

$$$$

// sample COc1ccc(/C=C2\CCC(C)(CN(C)C)C2=O)cc1 (configuration not stated) , its TGI was > 100 µM

For reference, reported TGI for N#Cc1cc([N+](=O)[O-])ccc1NC(=O)C(=O)C(C(=O)/C=C/c1ccccc1)C1OC(=O)c2ccccc21 (configuration not stated) stands at > 100 µM

molecule O=C1C(=O)C(Br)(Br)C(Br)=C1Br , TGI observed: 29 µM

TGI for Cc1ccc(Cl)c(NC(=O)C(=O)C(C(=O)c2ccncc2)C2OC(=O)c3ccccc32)c1 (configuration not stated) is > 100 µM

Quick note, TGI for COc1ccc(C(c2c(O)c3ccccc3n(C)c2=O)c2c(O)c3ccccc3n(C)c2=O)cc1 landed at > 100 µM

Summary for this molecule, CCOC(=O)/C(=C/c1ccc(C#N)cc1)N(CC)CC : TGI is > 100 µM

Recorded TGI (molecule O=c1c2ccccc2c2nc3ccccc3nc2n1C1CCCCC1 ): > 100 µM

Note to self: TGI recorded for CO[C@@H]1[C@H](OC(=O)NC(=O)CCl)CC[C@]2(CO2)[C@H]1[C@@]1(C)O[C@@H]1CC=C(C)C was 20.9 µM

Record summary for OCC12C3C4C1C1C2C3C41CO (configuration not stated) : reported TGI = > 100 µM

Quick note, TGI for CCOC(=O)c1cn(Cc2ccccc2)c(=O)n1Cc1ccccc1 landed at > 100 µM
